Exercise: for every item that follows, state its recorded koff.
Biological target: T1, cyno TF ECD-His (cTF-his) (monkey (cyno))
T1 construct: also called bio-cTF-his; monkey TF-His protein
T1 chain: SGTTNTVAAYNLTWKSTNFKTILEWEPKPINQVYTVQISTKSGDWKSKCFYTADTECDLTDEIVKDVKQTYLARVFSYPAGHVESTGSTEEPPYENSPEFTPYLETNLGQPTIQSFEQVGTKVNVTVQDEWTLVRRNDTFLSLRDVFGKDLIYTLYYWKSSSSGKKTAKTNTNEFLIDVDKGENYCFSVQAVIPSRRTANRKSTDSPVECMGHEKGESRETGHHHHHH
Test: SPR Biacore T200, antibody on Protein A chip, TF-His as analyte, 1:1 model

# get_value(readout='koff', item= hu67-10 (antibody, human IgG1, kappa, V domains shown) VH: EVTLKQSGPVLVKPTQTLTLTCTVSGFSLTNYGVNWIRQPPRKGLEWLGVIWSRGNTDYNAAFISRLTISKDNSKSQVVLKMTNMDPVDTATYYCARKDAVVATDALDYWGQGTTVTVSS VL: DIQMTQSPSSLSASVGDRVTITCKASQDVSTAVAWYQQKPGKAPKLLIYSTSYRYTGVPSRFSGSGSGTDFTFTISSLQPEDIATYYCQQHYSTPYTFGGGTKVEIKR ) 0.000356 s⁻¹

# get_value(readout='koff', item= hu67-12 (antibody, human IgG1, kappa, V domains shown) VH: EVQLQESGPGLVKPSQTLSLTCTVSGFSLTNYGVNWIRQPPRKGLEWIGVIWSRGNTDYNAAFISRVTISKDNSKSQVSLKLSSVTAADTAVYYCARKDAVVATDALDYWGQGTTVTVSS VL: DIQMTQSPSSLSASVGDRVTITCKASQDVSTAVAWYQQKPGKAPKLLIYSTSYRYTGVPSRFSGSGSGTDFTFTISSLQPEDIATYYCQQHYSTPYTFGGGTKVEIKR ) 0.000468 s⁻¹
